B1: library; a variant is named by its letters at N, in order (parent)
chain: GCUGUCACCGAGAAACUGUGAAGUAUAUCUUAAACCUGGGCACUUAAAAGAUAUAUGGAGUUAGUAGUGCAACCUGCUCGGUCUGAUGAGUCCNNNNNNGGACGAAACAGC

Variants of: B1
assay_name: normalized RNA/DNA level with ligand (relative to sTRSVctl = 100) (log10 (% of sTRSVctl)); HEK293T; ligand: cyclic di-GMP (c-di-GMP-II aptamer); ligand concentration (+) RNA-Seq: 1 mM; higher = less ribozyme self-cleavage, higher mRNA level
details: reporter: mCherry (pCS4076), ligand present: yes
In this section, each of the variants is paired with its reported normalized RNA/DNA level with ligand (log10).
property_name: normalized RNA/DNA level with ligand (log10)

1) GAUAAC    1.85
2) CGUUGU    1.86
3) UAAACA    1.85
4) AAUGAA    1.63
5) AGUGUU    1.79
6) UGCAAG    1.9
7) UUCCCU    1.89
8) UUACGA    1.87
9) AAUGGA    1.55
10) CAUGUC    1.82
11) UCCACU    1.85
12) CAGCCG    1.9
13) UCCAAG    1.78
14) UUAUUU    1.86
15) GUGUUA    1.77
16) UUGGCG    1.94
17) UCCGCA    1.86
18) CGGCAA    1.47
19) UCGGGG    1.83
20) GCUCAA    1.79
21) CUGGUG    1.58
22) AAAAGC    1.73
23) GCGAAC    1.54
24) GUUGGG    1.76
25) AUCAUU    1.79
26) AUAAAG    1.73
27) ACUCAA    1.71
28) UAUAAG    1.82
29) AUGAUG    1.77
30) UGGAUA    1.8
31) GUAUCG    1.81
32) UACUUC    1.87
33) CUAGUC    1.83
34) GGUAUU    1.8
35) CUGACU    1.75
36) UACGUU    1.84
37) GUGAGC    1.77
38) UUCCUU    1.9
39) CGGUAG    1.84
40) GACUUG    1.79
